# TESTED ON: 5-hydroxytryptamine receptor 2A (Homo sapiens, UniProt P28223)
# Sequence (P28223 whole entry): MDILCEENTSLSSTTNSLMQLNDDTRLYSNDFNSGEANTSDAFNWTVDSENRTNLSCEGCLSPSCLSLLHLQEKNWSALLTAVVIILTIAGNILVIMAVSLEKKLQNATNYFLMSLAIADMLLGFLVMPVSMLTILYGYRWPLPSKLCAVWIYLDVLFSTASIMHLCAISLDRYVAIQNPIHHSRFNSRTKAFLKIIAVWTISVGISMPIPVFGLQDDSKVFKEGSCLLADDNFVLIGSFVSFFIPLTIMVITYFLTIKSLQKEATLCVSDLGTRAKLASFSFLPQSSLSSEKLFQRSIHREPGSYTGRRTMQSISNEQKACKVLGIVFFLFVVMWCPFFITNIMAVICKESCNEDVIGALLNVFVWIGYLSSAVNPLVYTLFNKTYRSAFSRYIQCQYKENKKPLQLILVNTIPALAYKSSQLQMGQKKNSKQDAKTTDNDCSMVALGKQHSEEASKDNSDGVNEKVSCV
# ASSAY PROTOCOL: Antagonist activity at human 5HT2A receptor expressed in HEK cells assessed as intracellular calcium luminescence by aequorin assay
# Type: functional, cell-based, HEK293
Returns: string. Value is True if measured Ki is below 100 nM, and False if it is greater than or equal to it.

COMPOUND: C1=C(N2CCNCC2)c2nccn2Cc2ccccc21
CLASS: True

COMPOUND: Cc1nc2n(c1C)Cc1ccccc1C=C2N1CCN(CC(C)(C)C(=O)O)CC1
CLASS: False

COMPOUND: COc1cnc2n1Cc1ccccc1C=C2N1CCN(CC(C)(C)C(=O)O)CC1
CLASS: False

COMPOUND: CC(C)(CN1CCCN(C2=Cc3ccccc3Cn3ccnc32)CC1)C(=O)O
CLASS: False

Exercise: Is it true that Ki reported for CC1CN(C2=Cc3ccccc3Cn3ccnc32)CC(C)N1CCC(=O)O (stereo unspecified) is less than 100 nM?
Key: True
